system: VA-ES-BJ; assay: relative viability vs DMSO control (72 h) (fraction); higher = more viable cells; details: 0.1235 µM
MEASURED PROPERTY: relative viability
Returns: the value as a bare number; no unit string appended.

Request: relative viability, test system VA-ES-BJ, entry C[C@@H]1COC(Nc2ccc3ncnc(Nc4ccc(OCc5nccs5)c(Cl)c4)c3c2)=N1 [Varlitinib]
1.12

***
Form field - read-out: relative viability; system: VA-ES-BJ; submitted item: CO[C@@H]1[C@H](N(C)C(=O)c2ccccc2)C[C@H]2O[C@]1(C)n1c3ccccc3c3c4c(c5c6ccccc6n2c5c31)C(=O)NC4 [Midostaurin]
0.917

Query relative viability on VA-ES-BJ for NC(=O)c1cccc2cn(-c3ccc([C@@H]4CCCNC4)cc3)nc12 [Niraparib]
0.983

Query for VA-ES-BJ: what relative viability does the record show for CN(C)C[C@@H]1CCn2cc(c3ccccc32)C2=C(C(=O)NC2=O)c2cn(c3ccccc23)CCO1 [Ruboxistaurin] ?
0.973

----------
test system: SW1353; assay: relative viability vs DMSO control (72 h) (fraction); higher = more viable cells; details: 0.3704 µM
# 1 = relative viability below 1 (exclusive); -1 = relative viability at/above 1

Examples from the recorded data:
Just wondering, is relative viability of COc1cc2ncnc(Nc3ccc(F)c(Cl)c3)c2cc1NC(=O)/C=C/CN1CCCCC1 [Dacomitinib] below 1?
1

Check if relative viability falls below 1 for NC(=O)c1cnc2[nH]ccc2c1N[C@@H]1[C@@H]2CC3C[C@H]1C[C@@](O)(C3)C2 [Peficitinib] .
-1

Given C#Cc1cccc(Nc2ncnc3cc(OCCOC)c(OCCOC)cc23)c1 [Erlotinib] , is recorded relative viability strictly lower than 1?
1

Decide: relative viability of COc1cc2c(Oc3ccc4[nH]c(C)cc4c3F)ccnc2cc1OCC1(N)CC1 [Anlotinib] strictly below 1?
1

Determine whether this compound shows relative viability lower than 1 (ties excluded): C=CC(=O)Nc1cccc(Nc2nc(Nc3ccc(N4CCN(C(C)=O)CC4)cc3OC)ncc2C(F)(F)F)c1 [Rociletinib]
1

Below 1 on relative viability? Entry COc1cc(Nc2c(C#N)cnc3cc(OCCCN4CCN(C)CC4)c(OC)cc23)c(Cl)cc1Cl [Bosutinib]
-1

***
Consider Cc1c(F)cc(C(=O)NC2CC2)cc1-c1ccc(C(=O)NCC(C)(C)C)cn1 [Losmapimod] . Does its relative viability lie strictly below 1?
-1

----------
Below, each of the molecules is paired with its reported relative viability value.
test system: RD-ES; assay: relative viability vs DMSO control (72 h) (fraction); higher = more viable cells; conditions: 0.3704 µM
Just the number, please, no unit attached.

Consider the molecule shown here: Cc1nc(Nc2ncc(C(=O)Nc3c(C)cccc3Cl)s2)cc(N2CCN(CCO)CC2)n1 What is its recorded relative viability?
0.918

# query: relative viability of entry COc1cc2nccc(Oc3ccc(NC(=O)NC4CC4)c(Cl)c3)c2cc1C(N)=O
0.857

# relative viability lookup, item CO[C@@H]1[C@H](N(C)C(=O)c2ccccc2)C[C@H]2O[C@]1(C)n1c3ccccc3c3c4c(c5c6ccccc6n2c5c31)C(=O)NC4
0.825

Which relative viability value belongs to C[C@@H](Oc1cc(-c2cnn(C3CCNCC3)c2)cnc1N)c1c(Cl)ccc(F)c1Cl ?
0.745

If you can, please state the reported relative viability value of CCCS(=O)(=O)N[C@H]1C[C@@H](N(C)c2ncnc3[nH]ccc23)C1 .
1.01

Continuing:
Quick one: relative viability for Cc1cc(Nc2ncc(Cl)c(Nc3ccccc3S(=O)(=O)C(C)C)n2)c(OC(C)C)cc1C1CCNCC1 ?
0.681

Bench note: what relative viability did C[C@H]1Oc2cc(cnc2N)-c2c(nn(C)c2C#N)CN(C)C(=O)c2ccc(F)cc21 show?
0.891

Sample NC(=O)c1cccc2cn(-c3ccc([C@@H]4CCCNC4)cc3)nc12 — what was its relative viability?
0.899

Any idea what its relative viability is? The molecule is C=CC(=O)Nc1cccc(Nc2nc(Nc3ccc(N4CCN(C(C)=O)CC4)cc3OC)ncc2C(F)(F)F)c1
0.889

Fill in: relative viability of C#Cc1cccc(Nc2ncnc3cc(OCCOC)c(OCCOC)cc23)c1 is ___
0.994

----------
tested on: SW1353; experiment: relative viability vs DMSO control (72 h) (fraction); higher = more viable cells; details: 1.111 µM
MEASURED PROPERTY: relative viability
// print number alone

Can you look up the measured relative viability of Cc1cc(Nc2ncc(Cl)c(Nc3ccccc3S(=O)(=O)C(C)C)n2)c(OC(C)C)cc1C1CCNCC1 [Ceritinib] for me?
0.901

Query (compound): N#Cc1ccnc(N2C(=O)CC[C@H]2C(=O)N(c2cncc(F)c2)[C@H](C(=O)NC2CC(F)(F)C2)c2ccccc2Cl)c1 [Ivosidenib] ; field requested: relative viability
0.929

Next:
Tell me the measured relative viability of CCCS(=O)(=O)N[C@H]1C[C@@H](N(C)c2ncnc3[nH]ccc23)C1 [Abrocitinib] , please.
0.958

If you can, please state the reported relative viability value of Cc1ccc(C(=O)OCc2ccc([C@@H](CN)C(=O)Nc3ccc4cnccc4c3)cc2)c(C)c1 [Netarsudil] .
0.628

Look up relative viability for this compound: CC[C@@H]1C(=O)N(C)c2cnc(Nc3ccc(C(=O)N[C@H]4CC[C@H](N5CCN(CC6CC6)CC5)CC4)cc3OC)nc2N1C(C)C [Volasertib]
0.442

I would be grateful if you could share the reported relative viability for CCCCCCCCCCCCCCCCCCOP(=O)([O-])OC1CC[N+](C)(C)CC1 [Perifosine] .
1.03

Query (compound): NC(=O)c1cccc2cn(-c3ccc([C@@H]4CCCNC4)cc3)nc12 [Niraparib] ; field requested: relative viability
0.933

----------
tested on: HS729; experiment: relative viability vs DMSO control (72 h) (fraction); higher = more viable cells; conditions: 0.00152 µM
Label fulfilled when relative viability < 1; otherwise not fulfilled.

A selection of reference data follows.
# TODO verify relative viability < 1 strictly for this compound: Cc1cc(Nc2ncc(Cl)c(Nc3ccccc3S(=O)(=O)C(C)C)n2)c(OC(C)C)cc1C1CCNCC1
not fulfilled

Does this compound meet the criterion relative viability < 1? N#CCC1(n2cc(-c3ncnc4[nH]ccc34)cn2)CN(C2CCN(C(=O)c3ccnc(C(F)(F)F)c3F)CC2)C1
fulfilled

Consider Cc1c(F)cc(C(=O)NC2CC2)cc1-c1ccc(C(=O)NCC(C)(C)C)cn1 . Does its relative viability lie strictly below 1?
not fulfilled

Quick check: relative viability of CN1CCN(CCOc2cc(OC3CCOCC3)c3c(Nc4c(Cl)ccc5c4OCO5)ncnc3c2)CC1 under 1?
fulfilled

Here's the next entry for you.
Please indicate whether the reported relative viability of Cc1cn(-c2cc(NC(=O)c3ccc(C)c(Nc4nccc(-c5cccnc5)n4)c3)cc(C(F)(F)F)c2)cn1 is strictly below 1.
fulfilled

----------
As shown below, each of these compounds has a reported relative viability value.
tested on: HS729; assay: relative viability vs DMSO control (72 h) (fraction); higher = more viable cells; settings: 0.00051 µM
Lab note: write the figure by itself, no unit.

# relative viability lookup, item COc1cc2c(Oc3ccc4[nH]c(C)cc4c3F)ccnc2cc1OCC1(N)CC1 [Anlotinib]
0.908

----------
tested on: A204; assay: standardised AUC of viability dose-response curve (72 h) (fraction (0-1)); higher = less growth inhibition (more resistant)
standardised AUC reference
No unit in the answer, please; the number alone is enough.

Here are 3 compounds together with their reported answers.
Which measured standardised AUC value corresponds to COc1cc2nccc(Oc3ccc(NC(=O)C4(C(=O)Nc5ccc(F)cc5)CC4)cc3)c2cc1OC [CABOZANTINIB] ?
0.656

// query standardised AUC value for entry C[C@@H](Oc1cc(-c2cnn(C3CCNCC3)c2)cnc1N)c1c(Cl)ccc(F)c1Cl
0.877

Name the reported standardised AUC value associated with the compound N#CCC1(n2cc(-c3ncnc4[nH]ccc34)cn2)CN(C2CCN(C(=O)c3ccnc(C(F)(F)F)c3F)CC2)C1
0.965

***
Which measured standardised AUC value corresponds to C1=N/C2=N/c3ccc(OCCN4CCCC4)c(c3)COC/C=C/COCc3cccc(c3)C(=C1)N2 ?
0.736

Record request: standardised AUC value, item CCN(CCCOc1ccc2c(Nc3cc(CC(=O)Nc4cccc(F)c4)[nH]n3)ncnc2c1)CCOP(=O)(O)O
0.816

Form field: reported standardised AUC of CCCCCCCCCCCCCCCCCCOP(=O)([O-])OC1CC[N+](C)(C)CC1
0.982

----------
tested on: SW1353; experiment: relative viability vs DMSO control (72 h) (fraction); higher = more viable cells; settings: 0.00457 µM
# condition met = relative viability below 1 (exclusive); condition not met = relative viability at/above 1

Lab log: compare recorded relative viability with 1; is it strictly lower for Cc1cccc(-c2[nH]c(CNc3ccccc3F)nc2-c2ccc3ncnn3c2)n1 ?
condition met

Does the reported relative viability of COc1cc(OC)cc(N(CCNC(C)C)c2ccc3ncc(-c4cnn(C)c4)nc3c2)c1 stay below 1?
condition met

Determine whether this compound shows relative viability lower than 1 (ties excluded): Cc1c(F)cc(C(=O)NC2CC2)cc1-c1ccc(C(=O)NCC(C)(C)C)cn1
condition not met

# strict comparison: is reported relative viability < 1? input = C1=N/C2=N/c3ccc(OCCN4CCCC4)c(c3)COC/C=C/COCc3cccc(c3)C(=C1)N2
condition not met

hey, is relative viability for C=CC(=O)Nc1cccc(Nc2nc(Nc3ccc(N4CCN(C(C)=O)CC4)cc3OC)ncc2C(F)(F)F)c1 lower than 1 or not?
condition not met

State whether 1 exceeds relative viability recorded for N#CCC1(n2cc(-c3ncnc4[nH]ccc34)cn2)CN(C2CCN(C(=O)c3ccnc(C(F)(F)F)c3F)CC2)C1 .
condition met

Further cases:
Please let me know if COc1cc2ncnc(Nc3ccc(F)c(Cl)c3)c2cc1NC(=O)/C=C/CN1CCCCC1 shows relative viability below 1.
condition met
